- measurement_target: T1, His-labeled human CD3E (human, UniProt P07766 23-126)
- T1 construct: also called human CD3E antigen; antigen CD3E; not shown: His label
- T1 sequence (P07766 23-126): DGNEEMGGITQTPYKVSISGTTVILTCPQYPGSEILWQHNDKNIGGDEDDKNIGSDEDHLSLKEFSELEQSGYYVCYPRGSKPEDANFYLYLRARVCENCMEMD
- assay_remarks: BLI (Octet), method of Example 3: His-labeled human CD3E on Ni-NTA sensors
result_type: pKd
By convention, pKd is the negative base-10 log of a molar concentration.

binder	pKd
humanized antibody AB623 (antibody, V domains shown) VH: EVQLLESGGGLVQPGGSLKLSCAASGFTFNTYAMNWVRQAPGKGLEWVGRIRSKINNYATYYADSVKDRFTISRDDSKNTAYLQMNNLKTEDTAMYYCVRHDNHYGSTYSWFADWGQGTLVTVSS VL: ELVVTQEPSLTVSPGGTVTLTCRSSTGVVTTSNYANWVQEKPDHLFTGLIGATNYRAPGTPARFSGSLLGGKAALTLSGVQPEDEAIYFCVLWYSNHWVFGGGTKLTVL	7.63

Then there is this binder:
Reported pKd ( humanized antibody AB619 (antibody, V domains shown) VH: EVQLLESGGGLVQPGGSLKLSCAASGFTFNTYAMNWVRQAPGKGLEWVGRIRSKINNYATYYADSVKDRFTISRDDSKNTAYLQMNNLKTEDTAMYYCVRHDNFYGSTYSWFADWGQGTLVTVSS VL: ELVVTQEPSLTVSPGGTVTLTCRSSTGVVTTSNYANWVQEKPDHLFTGLIGATDYRAPGTPARFSGSLLGGKAALTLSGVQPEDEAIYFCVLWYSNHWVFGGGTKLTVL ) = 9.91
